# Experimental Target: Ubiquitin carboxyl-terminal hydrolase 1 (Homo sapiens) (UniProt O94782)
# Sequence (O94782 whole entry, looked up): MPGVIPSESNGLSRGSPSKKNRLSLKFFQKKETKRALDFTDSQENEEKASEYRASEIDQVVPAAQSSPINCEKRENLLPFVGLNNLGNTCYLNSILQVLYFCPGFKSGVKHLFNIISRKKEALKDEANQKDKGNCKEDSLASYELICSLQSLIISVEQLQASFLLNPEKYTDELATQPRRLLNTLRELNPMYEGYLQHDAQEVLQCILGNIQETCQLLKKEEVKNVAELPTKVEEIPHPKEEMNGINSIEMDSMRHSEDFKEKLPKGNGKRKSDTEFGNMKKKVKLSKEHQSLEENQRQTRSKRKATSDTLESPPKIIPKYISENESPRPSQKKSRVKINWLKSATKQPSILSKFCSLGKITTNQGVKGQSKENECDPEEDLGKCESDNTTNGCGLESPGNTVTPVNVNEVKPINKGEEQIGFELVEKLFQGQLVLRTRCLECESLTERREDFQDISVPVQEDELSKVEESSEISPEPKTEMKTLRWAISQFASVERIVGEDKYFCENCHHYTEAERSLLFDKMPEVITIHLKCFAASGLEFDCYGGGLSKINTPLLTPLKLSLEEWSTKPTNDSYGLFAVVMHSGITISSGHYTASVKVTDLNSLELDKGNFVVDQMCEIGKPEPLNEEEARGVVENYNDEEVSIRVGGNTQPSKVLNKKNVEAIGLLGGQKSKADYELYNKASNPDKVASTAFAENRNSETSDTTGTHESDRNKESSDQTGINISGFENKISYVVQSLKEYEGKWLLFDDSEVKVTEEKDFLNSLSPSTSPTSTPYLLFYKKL
# Run Description: Inhibitors of USP1/UAF1: SAR in Primary Assay
# Condition Set: Recombinant USP1/UAF1, Ub-Rhodamine cleavage fluorescence; series mostly up to 57.1 µM
Records with an inconclusive call do not appear. The source made the active and inactive calls. Calls come from the whole dose curve; as a rule, active = well fitted inhibition curve with a large enough effect; inconclusive = small, poorly fitted or top-dose-only effect; inactive = flat fitted curve, though single readings scatter.
Quantity Measured: Potency

Given Cc1ccc(N2CCC(CNc3nc(-c4ccccc4C(C)C)ncc3F)CC2)cn1 , report its Potency on Ubiquitin carboxyl-terminal hydrolase 1 (Homo sapiens) (UniProt O94782). 96.1 nM (active)

Given CC(Nc1nc(-c2ccccc2C(F)(F)F)nc2ccccc12)c1ccc(-c2ccncc2)cc1 (stereo not given) , report its Potency on Ubiquitin carboxyl-terminal hydrolase 1 (Homo sapiens) (UniProt O94782). 5410 nM (active)

Given CC(C)c1ccccc1-c1ncc(F)c(NCc2ccc(-c3cccnc3)cc2)n1 , report its Potency on Ubiquitin carboxyl-terminal hydrolase 1 (Homo sapiens) (UniProt O94782). 60.7 nM (active)

Given Cc1ccc(-c2ccc(CN(C)c3nc(-c4ccccc4C(C)C)ncc3C)cc2)cn1 , report its Potency on Ubiquitin carboxyl-terminal hydrolase 1 (Homo sapiens) (UniProt O94782). 541 nM (active)

Given Clc1ccccc1-c1nc(NCc2ccc(-c3cccnc3)cc2)c2ccccc2n1 , report its Potency on Ubiquitin carboxyl-terminal hydrolase 1 (Homo sapiens) (UniProt O94782). 857 nM (active)

Given Cc1cnc(-c2ccccc2C2CC2)nc1NCc1ccc(-c2cccnc2)cc1 , report its Potency on Ubiquitin carboxyl-terminal hydrolase 1 (Homo sapiens) (UniProt O94782). 341 nM (active)

Given CC(C)c1ccccc1-c1ncc(N)c(NCc2ccc(-c3cccnc3)cc2)n1 , report its Potency on Ubiquitin carboxyl-terminal hydrolase 1 (Homo sapiens) (UniProt O94782). 271 nM (active)

Given CC(C)c1ccccc1-c1nccc(NCc2ccc(-c3cccnc3)cc2)n1 , report its Potency on Ubiquitin carboxyl-terminal hydrolase 1 (Homo sapiens) (UniProt O94782). 121 nM (active)

Given CC(C)c1ccccc1-c1ncc(F)c(NCc2ccc(-n3ccnn3)cc2)n1 , report its Potency on Ubiquitin carboxyl-terminal hydrolase 1 (Homo sapiens) (UniProt O94782). 17.1 nM (active)

Given CC(C)c1ccccc1-c1nccc(NCc2ccc(-c3ccnc(C(F)(F)F)c3)cc2)n1 , report its Potency on Ubiquitin carboxyl-terminal hydrolase 1 (Homo sapiens) (UniProt O94782). 764 nM (active)
